Taken from ChEMBL document CHEMBL1141933.

biological target: Protein farnesyltransferase (PFT) (Plasmodium falciparum, UniProt Q5EI73+Q5EI74); test: Inhibition of biotinylated lamin B peptide farnesylation by Plasmodium falciparum farnesyltransferase
Sequence (Q5EI73 whole entry): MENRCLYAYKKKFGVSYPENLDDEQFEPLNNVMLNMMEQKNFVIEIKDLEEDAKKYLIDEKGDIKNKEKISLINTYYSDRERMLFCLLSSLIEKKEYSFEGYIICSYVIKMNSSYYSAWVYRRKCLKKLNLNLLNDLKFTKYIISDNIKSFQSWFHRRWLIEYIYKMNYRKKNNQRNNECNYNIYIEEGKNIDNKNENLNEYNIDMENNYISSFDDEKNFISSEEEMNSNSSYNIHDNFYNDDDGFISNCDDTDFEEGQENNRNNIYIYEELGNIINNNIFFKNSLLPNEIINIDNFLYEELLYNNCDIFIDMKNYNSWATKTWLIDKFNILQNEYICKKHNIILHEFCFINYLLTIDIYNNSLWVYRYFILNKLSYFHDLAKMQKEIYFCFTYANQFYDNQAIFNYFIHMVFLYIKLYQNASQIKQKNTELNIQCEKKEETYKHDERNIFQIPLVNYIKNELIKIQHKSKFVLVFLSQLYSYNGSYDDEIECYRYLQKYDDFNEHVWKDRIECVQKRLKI
Sequence (Q5EI74 whole entry): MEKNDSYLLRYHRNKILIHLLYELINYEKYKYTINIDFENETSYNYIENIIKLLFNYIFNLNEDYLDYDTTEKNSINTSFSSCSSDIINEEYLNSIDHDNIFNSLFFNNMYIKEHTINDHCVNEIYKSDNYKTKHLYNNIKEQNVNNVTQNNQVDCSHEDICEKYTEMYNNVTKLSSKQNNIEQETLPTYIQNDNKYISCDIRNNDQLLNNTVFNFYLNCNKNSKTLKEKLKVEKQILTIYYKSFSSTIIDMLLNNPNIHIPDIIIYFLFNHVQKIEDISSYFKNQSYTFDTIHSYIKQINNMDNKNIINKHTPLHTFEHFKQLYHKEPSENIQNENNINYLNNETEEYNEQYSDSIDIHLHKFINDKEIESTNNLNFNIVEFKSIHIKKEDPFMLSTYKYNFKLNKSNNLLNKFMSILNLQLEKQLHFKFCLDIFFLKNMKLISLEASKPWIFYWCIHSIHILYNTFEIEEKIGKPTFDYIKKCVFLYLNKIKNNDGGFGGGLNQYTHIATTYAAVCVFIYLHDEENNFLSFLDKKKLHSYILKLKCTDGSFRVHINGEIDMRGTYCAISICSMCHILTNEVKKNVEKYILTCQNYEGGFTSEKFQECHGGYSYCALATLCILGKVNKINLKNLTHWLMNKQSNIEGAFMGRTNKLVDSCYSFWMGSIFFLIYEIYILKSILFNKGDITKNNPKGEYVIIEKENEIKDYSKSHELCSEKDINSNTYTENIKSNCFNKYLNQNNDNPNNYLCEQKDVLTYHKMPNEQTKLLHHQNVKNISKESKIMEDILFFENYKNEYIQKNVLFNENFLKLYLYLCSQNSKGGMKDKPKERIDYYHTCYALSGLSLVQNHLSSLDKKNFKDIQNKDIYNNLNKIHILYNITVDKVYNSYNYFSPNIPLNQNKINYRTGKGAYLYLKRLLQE
recorded-endpoint: IC50 (nM)

- compound: "NC(=O)N1CCC(CC(=O)N2CCC([C@H]3c4ncc(Br)cc4CCc4cc(Cl)cc(Br)c43)CC2)CC1"
  units-text: "nM"
  relation-qualifier: ">"
  test-result: 250
- compound: "C=C(C)CN(C1Cc2cc(C#N)ccc2N(Cc2cncn2C)C1)S(=O)(=O)c1cn(C)cn1 (centres undefined)"
  units-text: "nM"
  relation-qualifier: "="
  test-result: 0.6
- compound: "Cn1cncc1C(O)(CN1CCC(C#N)=C(c2cccc3ccccc23)C1)c1ccc(C#N)cc1 (centres undefined)"
  units-text: "nM"
  relation-qualifier: "="
  test-result: 9
- compound: "Cn1cnc(S(=O)(=O)N(CC2CCN(C(=O)OC(C)(C)C)CC2)C2Cc3cc(C#N)ccc3N(Cc3cncn3C)C2)c1 (centres undefined)"
  units-text: "nM"
  relation-qualifier: "="
  test-result: 1.1
